Organism: Rattus norvegicus
Experiment: DrugMatrix - Regimen: Daily Repeat
Assay type: toxicity, organism-based, Sprague-Dawley
Set-up: regimen Daily Repeat, gender Male, age 6-8 weeks
Conditions: in vivo, iv, 0 mg/kg, 120 h, tissue Blood, dose level Control, time 5 day, vehicle 100 % SALINE
ASSAY ENDPOINT: ABSOLUTE MONOCYTE

1) COc1cccc2c1C(=O)c1c(O)c3c(c(O)c1C2=O)C[C@@](O)(C(=O)CO)C[C@@H]3O[C@H]1C[C@H](N)[C@@H](O)[C@H](C)O1 [EPIRUBICIN] :: 17.17 CELLS/uL
2) CCC1=C[C@@H]2CN(C1)Cc1c([nH]c3ccccc13)[C@@](C(=O)OC)(c1cc3c(cc1OC)N(C)[C@H]1[C@@](O)(C(=O)OC)[C@H](OC(C)=O)[C@]4(CC)C=CCN5CC[C@]31[C@@H]54)C2 :: 138.67 CELLS/uL
3) CC(=O)N[C@@H]1[C@H](Oc2c3cc4cc2Oc2ccc(cc2Cl)[C@@H](O[C@@H]2O[C@@H](CO)[C@@H](O)[C@H](O)[C@@H]2NC(C)=O)[C@@H]2NC(=O)[C@H](NC(=O)[C@@H]4NC(=O)[C@H]4NC(=O)[C@@H](Cc5ccc(c(Cl)c5)O3)NC(=O)[C@H](N)c3ccc(O)c(c3)Oc3cc(O)cc4c3)c3ccc(O)c(c3)-c3c(O[C@H]4O[C@H](CO)[C@@H](O)[C@@H](O)[C@@H]4O)cc(O)cc3[C@@H](C(=O)O)NC2=O)O[C@@H](CO)[C@@H](O)[C@@H]1O :: 576 CELLS/uL
4) COc1cccc2c1C(=O)c1c(O)c3c(c(O)c1C2=O)C[C@@](O)(C(=O)CO)C[C@@H]3O[C@H]1C[C@H](N)[C@H](O)[C@H](C)O1 :: 74.83 CELLS/uL
5) CCc1c2c(nc3ccc(OC(=O)N4CCC(N5CCCCC5)CC4)cc13)-c1cc3c(c(=O)n1C2)COC(=O)[C@]3(O)CC :: 17.17 CELLS/uL

Prompt: Complete the entry with ABSOLUTE MONOCYTE for CC[C@]1(O)C[C@@H]2CN(CCc3c([nH]c4ccccc34)[C@@](C(=O)OC)(c3cc4c(cc3OC)N(C)[C@H]3[C@@](O)(C(=O)OC)[C@H](OC(C)=O)[C@]5(CC)C=CCN6CC[C@]43[C@@H]65)C2)C1
Response: 69.83 CELLS/uL

---

Listed next: entries and their corresponding BLOOD UREA NITROGEN.
Organism: Rattus norvegicus
Test: DrugMatrix - Regimen: Daily Repeat
Format: toxicity, organism-based, Sprague-Dawley
Set-up: regimen Daily Repeat, gender Male, age 6-8 weeks
Conditions: in vivo, po, 0 mg/kg, 72 h, tissue Plasma, route oral GAVAGE, dose level Control, time 3 day, vehicle .5 % CMC
Report the figure in mg/dL without appending any unit label.

Illustrative cases are given below, each with its answer.
1. C[C@](O)(CS(=O)(=O)c1ccc(F)cc1)C(=O)Nc1ccc(C#N)c(C(F)(F)F)c1 [(R)-BICALUTAMIDE] :: 17.33
2. CO[C@H]1/C=C/O[C@@]2(C)Oc3c(C)c(O)c4c(c3C2=O)C2=NC3(CCN(CC(C)C)CC3)NC2=C(NC(=O)/C(C)=C\C=C\[C@H](C)[C@H](O)[C@@H](C)[C@@H](O)[C@@H](C)[C@H](OC(C)=O)[C@@H]1C)C4=O :: 15
3. OC(CCN1CCCCC1)(c1ccccc1)C1CCCCC1 (stereo unspecified) :: 16.33
4. Cc1onc(-c2ccccc2)c1-c1ccc(S(N)(=O)=O)cc1 :: 16.17
5. CC(C)[C@H]1CC[C@H](C(=O)N[C@H](Cc2ccccc2)C(=O)O)CC1 [NATEGLINIDE] :: 13.67
6. CC(=O)CC(c1ccccc1)c1c(O)c2ccccc2oc1=O (stereo unspecified) :: 15.5

Prompt: Complete the entry with BLOOD UREA NITROGEN for C[C@]1(Cn2ccnn2)[C@H](C(=O)O)N2C(=O)C[C@H]2S1(=O)=O
Response: 17.67

Prompt: Complete the entry with BLOOD UREA NITROGEN for CC[C@@H](CO)NCCN[C@@H](CC)CO
Response: 18.83

Prompt: Complete the entry with BLOOD UREA NITROGEN for O=C1CCC(N2C(=O)c3ccccc3C2=O)C(=O)N1 (stereo unspecified) [THALIDOMIDE]
Response: 15.17

Prompt: Complete the entry with BLOOD UREA NITROGEN for Clc1ccc2c(c1)C(N1CCNCC1)=Nc1ccccc1O2
Response: 15.33

Prompt: Complete the entry with BLOOD UREA NITROGEN for CN1C(=O)COc2c(C(=O)NC3CN4CCC3CC4)cc(Cl)cc21 (stereo unspecified)
Response: 16

Prompt: Complete the entry with BLOOD UREA NITROGEN for N=C(N)NC(=O)c1nc(Cl)c(N)nc1N [AMILORIDE]
Response: 18.83

Prompt: Complete the entry with BLOOD UREA NITROGEN for C#C[C@]1(O)CC[C@H]2[C@@H]3CCc4cc(OC)ccc4[C@H]3CC[C@@]21C
Response: 15

---

Organism: Rattus norvegicus
Assay: DrugMatrix - Regimen: Daily Repeat
Assay type: toxicity, organism-based, Sprague-Dawley
Parameters: regimen Daily Repeat, gender Male, age 6-8 weeks
Details: in vivo, po, 0 mg/kg, 120 h, tissue Blood, route oral GAVAGE, dose level Control, time 5 day, […]
# ABSOLUTE MONOCYTE >= 100 CELLS/uL gives 1 (yes), anything below gives 0 (no)

Solved entries (count: 7):
1) CC(=O)Nc1cccc(O)c1 [METACETAMOL] :: 1 (yes)
2) CC(C)(Oc1ccc(C2CCCc3ccccc32)cc1)C(=O)O (centres undefined) [NAFENOPIN] :: 1 (yes)
3) CC(=O)Nc1ccc(O)cc1 [ACETAMINOPHEN] :: 0 (no)
4) CCOC(=O)C1=C(C)NC(C)=C(C(=O)OC)C1c1cccc([N+](=O)[O-])c1 (centres undefined) [NITRENDIPINE] :: 0 (no)
5) C[C@]12CC[C@@H]3c4ccc(O)cc4CC[C@H]3[C@@H]1CC[C@@H]2O [ESTRADIOL] :: 1 (yes)
6) COCCOC(=O)C1=C(C)NC(C)=C(C(=O)OC(C)C)C1c1cccc([N+](=O)[O-])c1 (centres undefined) [NIMODIPINE] :: 0 (no)
7) COc1ccc2[nH]c([S+]([O-])Cc3ncc(C)c(OC)c3C)nc2c1 (centres undefined) [OMEPRAZOLE] :: 1 (yes)

Consider the additional compound presented here.
Prompt: Could you verify whether the entry Cc1cccc(Nc2ccncc2S(=O)(=O)NC(=O)NC(C)C)c1 [TORSEMIDE] shows ABSOLUTE MONOCYTE of no less than 100 CELLS/uL?
Response: 1 (yes)

---

Listed next: entries and their corresponding LYMPHOCYTE.
Organism: Rattus norvegicus
Test: DrugMatrix - Regimen: Daily Repeat
Type: toxicity, organism-based, Sprague-Dawley
Design: regimen Daily Repeat, gender Male, age 6-8 weeks
Conditions: in vivo, po, 0 mg/kg, 72 h, tissue Blood, route oral GAVAGE, dose level Control, time 3 day, vehicle .5 % CMC

Illustrative cases are given below, each with its answer.
1. CO[C@H]1/C=C/O[C@@]2(C)Oc3c(C)c(O)c4c(c3C2=O)C2=NC3(CCN(CC(C)C)CC3)NC2=C(NC(=O)/C(C)=C\C=C\[C@H](C)[C@H](O)[C@@H](C)[C@@H](O)[C@@H](C)[C@H](OC(C)=O)[C@@H]1C)C4=O :: 91.67%
2. C[C@](O)(CS(=O)(=O)c1ccc(F)cc1)C(=O)Nc1ccc(C#N)c(C(F)(F)F)c1 [(R)-BICALUTAMIDE] :: 90.17%
3. Cc1onc(-c2ccccc2)c1-c1ccc(S(N)(=O)=O)cc1 :: 84.44%
4. CC(=O)CC(c1ccccc1)c1c(O)c2ccccc2oc1=O (stereo not drawn) :: 88.33%
5. CN1CCC(=C2c3ccccc3C=Cc3ccccc32)CC1 :: 83.33%
6. O=[N+]([O-])c1ccccc1 :: 86.18%
7. CN1C(=O)COc2c(C(=O)NC3CN4CCC3CC4)cc(Cl)cc21 (stereo not drawn) :: 90.33%

Prompt: Complete the entry with LYMPHOCYTE for N=C(N)NC(=O)c1nc(Cl)c(N)nc1N [AMILORIDE]
Response: 76%

---

Species: Rattus norvegicus
Test: DrugMatrix - Regimen: Daily Repeat
Format: toxicity, organism-based, Sprague-Dawley
Parameters: regimen Daily Repeat, gender Male, age 6-8 weeks
Settings: in vivo, po, 10 mg/kg, 72 h, tissue Blood, route oral GAVAGE, dose level Low, time 3 day, […]
Listed next: entries and their corresponding LEUKOCYTE COUNT.
Report the figure in x10E3/uL without appending any unit label.

1. CC(C)CC(N(C)C)C1(c2ccc(Cl)cc2)CCC1 (centres undefined) :: 18.23
2. COc1ccc2cc([C@H](C)C(=O)O)ccc2c1 :: 18.73
3. COCCOC(=O)C1=C(C)NC(C)=C(C(=O)OC(C)C)C1c1cccc([N+](=O)[O-])c1 (centres undefined) :: 11.27

Pending compound:
Prompt: Complete the entry with LEUKOCYTE COUNT for CCOC(=O)C1=C(C)NC(C)=C(C(=O)OC)C1c1cccc([N+](=O)[O-])c1 (centres undefined)
Response: 10.3
